Tested on: E18 rat cortical neuron-glia co-culture
Assay: myelination (MBP fiber length per Olig2+ nucleus), % of 1 µM DAPT response (DMSO = 0) (% of DAPT); higher = more myelination, active = 50 or more
Settings: 5 µM; treatment time: 8 days (DIV5-DIV13)
Consider the following molecules; for each one, report its myelination.
Output spec: single numeric token, no unit.

Q: Please report the measured myelination for CCc1cccc2c3c([nH]c12)C(CC)(CC(=O)O)OCC3 (stereo unspecified) tested on E18 rat cortical neuron-glia co-culture.
A: 16.1

Q: Report its myelination with E18 rat cortical neuron-glia co-culture as the test system: CCN1CCCC1CNC(=O)c1cc(S(=O)(=O)CC)ccc1OC (stereo unspecified) [Sultopride]
A: -59.3

Q: // output myelination; input CC(C)[C@H](N)C(=O)OCCOCn1cnc2c(=O)nc(N)[nH]c21 ; system E18 rat cortical neuron-glia co-culture
A: -19

Q: Quote myelination with test system E18 rat cortical neuron-glia co-culture for Cc1c(OCC(F)(F)F)ccnc1C[S+]([O-])c1nc2ccccc2[nH]1 (stereo unspecified)
A: 65.6

Q: State, for E18 rat cortical neuron-glia co-culture, measured myelination of the molecule listed here: CCn1cc(C(=O)O)c(=O)c2ccc(C)nc21
A: -7.26

Q: State the measured myelination (E18 rat cortical neuron-glia co-culture) of CCN(Cc1ccncc1)C(=O)C(CO)c1ccccc1 (stereo unspecified) [Tropicamide]
A: -16.2

Q: Name the value of myelination reported for O=C1CC2(CCCC2)CC(=O)N1CCNCC1COc2ccccc2O1 (stereo unspecified) when tested on E18 rat cortical neuron-glia co-culture.
A: -17.9

Q: Give E18 rat cortical neuron-glia co-culture myelination for the following molecule: C[C@@H](O)[C@H]1C(=O)N2C(C(=O)O)=C(S[C@@H]3CN[C@H](C(=O)N(C)C)C3)[C@H](C)[C@H]12
A: -19.5

Q: # assay system E18 rat cortical neuron-glia co-culture: give myelination of Cc1sc(N)c(C(=O)c2cccc(C(F)(F)F)c2)c1C
A: -12

Q: Provide E18 rat cortical neuron-glia co-culture myelination reading for O=C1NC(=O)C(c2ccccc2)(c2ccccc2)N1 .
A: -20.9

Q: Please respond with reported myelination (system E18 rat cortical neuron-glia co-culture) for CCOC(=O)C1=C(C)NC(C)=C(C(=O)OC)C1c1cccc(Cl)c1Cl (stereo unspecified) .
A: 8.21

Q: Report myelination under test system E18 rat cortical neuron-glia co-culture for CC(=O)O[C@H]1C[C@@H]2CC[C@@H]3[C@H](CC[C@@]4(C)[C@H]3C[C@H]([N+]3(C)CCCCC3)[C@@H]4OC(C)=O)[C@@]2(C)C[C@@H]1N1CCCCC1 [Vecuronium Bromide] .
A: -9.35

Q: Give myelination; test system E18 rat cortical neuron-glia co-culture; molecule CC(=O)Nc1nnc(S(N)(=O)=O)s1 [Acetazolamide]
A: -1.11

Q: Give measured myelination for COC(=O)C1=C(C)NC(C)=C(C(=O)OC)C1c1ccccc1[N+](=O)[O-] (E18 rat cortical neuron-glia co-culture).
A: 10

Q: Report its myelination with E18 rat cortical neuron-glia co-culture as the test system: COc1cc(C)c(Cc2cnc(N)nc2N)cc1OC
A: -40

Q: Fill in myelination for CC(C)(C)C(O)/C=C/c1ccc2c(c1)OCO2 (stereo unspecified) tested with E18 rat cortical neuron-glia co-culture.
A: -6.09

Q: Report the value of myelination obtained on E18 rat cortical neuron-glia co-culture for CC(C)c1ccc2oc3nc(N)c(C(=O)O)cc3c(=O)c2c1 .
A: 0.757

Q: Given C#C[C@]1(O)CC[C@H]2[C@@H]3[C@H](C)CC4=C(CCC(=O)C4)[C@H]3CC[C@@]21C , report its myelination on E18 rat cortical neuron-glia co-culture.
A: -13.2

Q: Name the value of myelination reported for COc1c(N2C[C@@H]3CCCN[C@@H]3C2)c(F)cc2c(=O)c(C(=O)O)cn(C3CC3)c12 when tested on E18 rat cortical neuron-glia co-culture.
A: -17.6

Q: Find the measured myelination of CC1(C)S[C@@H]2[C@H](/N=C/N3CCCCCC3)C(=O)N2[C@H]1C(=O)O with E18 rat cortical neuron-glia co-culture as test system.
A: -5.42

Q: State, for E18 rat cortical neuron-glia co-culture, measured myelination of the molecule listed here: C#C[C@]1(O)CC[C@H]2[C@@H]3CCC4=CC(=O)CC[C@@H]4[C@H]3CC[C@@]21CC
A: 0.485

Q: Look up and report myelination, with E18 rat cortical neuron-glia co-culture as system, for CCN1CC(CCN2CCOCC2)C(c2ccccc2)(c2ccccc2)C1=O (stereo unspecified)
A: -11

Q: Print E18 rat cortical neuron-glia co-culture myelination for CNCC[C@H](Oc1cccc2ccccc12)c1cccs1 .
A: -33.2

Q: Write down measured myelination (E18 rat cortical neuron-glia co-culture) for this molecule. C[C@@H]1O[C@@H](OC[C@H]2O[C@@H](Oc3c(-c4ccc(O)c(O)c4)oc4cc(O)cc(O)c4c3=O)[C@H](O)[C@@H](O)[C@@H]2O)[C@H](O)[C@H](O)[C@H]1O
A: -4.44

Q: Look up and report measured myelination (E18 rat cortical neuron-glia co-culture) for the following molecule: CNCCCCOc1ccccc1Cc1ccccc1
A: -28.5

Q: Report its myelination with E18 rat cortical neuron-glia co-culture as the test system: CC(C)(C)NC(=O)[C@@H]1CN(Cc2cccnc2)CCN1C[C@@H](O)C[C@@H](Cc1ccccc1)C(=O)N[C@H]1c2ccccc2C[C@H]1O
A: -24.1

====

System: E18 rat cortical neuron-glia co-culture
Assay: myelination (MBP fiber length per Olig2+ nucleus), % of 1 µM DAPT response (DMSO = 0) (% of DAPT); higher = more myelination, active = 50 or more
Conditions: 5 µM; treatment time: 8 days (DIV5-DIV13)
Log the outcome using a class from active, inactive

Q: // return assay outcome for Oc1ccc(C2CNCCc3c2cc(O)c(O)c3Cl)cc1 (centres undefined)
A: inactive

Q: Just curious, what result did CCS(=O)(=O)CCn1c([N+](=O)[O-])cnc1C get here?
A: inactive

Q: GET /call?item= O=C(CCCN1CC=C(n2c(=O)[nH]c3ccccc32)CC1)c1ccc(F)cc1 returns the recorded outcome of this test.
A: inactive

Q: Per the records of this test, what outcome belongs to Nc1ccc2cn[nH]c2c1 ?
A: inactive

Q: Lab log entry: NS(=O)(=O)c1cc(C(=O)O)c(NCc2ccco2)cc1Cl [Furosemide] — outcome as called in the assay?
A: inactive

Q: State the result this test recorded for NCCc1ccc(O)c(O)c1 .
A: inactive

Q: Recorded test outcome, item COc1cc(CNC(=O)CCCC/C=C\C(C)C)ccc1O
A: active

Q: Answer briefly: the call reported for C[C@H]1C[C@H]2[C@@H]3CCC4=CC(=O)C=C[C@]4(C)[C@@]3(Cl)[C@@H](O)C[C@]2(C)[C@@]1(O)C(=O)CO in this assay.
A: inactive

Q: Kindly provide the recorded test outcome for the following molecule: CS(=O)(=O)OCCCCOS(C)(=O)=O
A: inactive

Q: Identify the outcome logged in this assay for the molecule shown: CN(C)CCC=C1c2ccccc2CCc2ccccc21
A: inactive

Q: Outcome logged for OCCN1CCN(CCCN2c3ccccc3Sc3ccc(C(F)(F)F)cc32)CC1 in this assay:
A: inactive

Q: Recorded call for CC(Cc1ccccc1)(NC(=O)CN)c1ccccc1 (centres undefined) [Remacemide] ?
A: inactive

Q: Write down the call the test reported for this molecule. Item: COc1ccc(OC)c(C(O)CNC(=O)CN)c1 (centres undefined)
A: inactive

Q: Called result for CN(C)c1nc(N(C)C)nc(N(C)C)n1
A: inactive

Q: For CC(CCc1ccccc1)NCC(O)c1ccc(O)c(C(N)=O)c1 (centres undefined) , which call appears in the assay record?
A: inactive

Q: Record request — test call for CN/C(=N\CCSCc1nc[nH]c1C)NC#N
A: inactive

Q: I'd appreciate the recorded outcome for CCCNCC(O)COc1ccccc1C(=O)CCc1ccccc1 (centres undefined) from this test.
A: inactive

Q: Which outcome did this test record for the molecule CC(C)(C)NCC(O)c1cc(O)cc(O)c1 (centres undefined) ?
A: inactive

Q: // outcome(item) with item = CCC[C@@H]1C[C@@H](C(=O)N[C@@H]([C@H]2O[C@H](SC)[C@H](O)[C@@H](O)[C@H]2O)[C@@H](C)O)N(C)C1
A: inactive

Q: So what was the verdict on COc1cc(Cc2cnc(N)nc2N)cc(OC)c1OC in this test?
A: inactive

Q: So what was the verdict on Nc1cc(N2CCCCC2)nc(N)[n+]1[O-] in this test?
A: inactive

Q: Short answer needed: outcome of this test for CCN(CC)CC(=O)Nc1c(C)cccc1C ?
A: inactive

Q: Per the records of this test, what outcome belongs to CCCc1cc(=O)[nH]c(=S)[nH]1 ?
A: inactive

Q: Hi team, can someone confirm the assay call for COc1cc(/C=C/c2ccc(O)cc2)cc(OC)c1 ?
A: inactive
